target: k opioid receptors (Cavia porcellus, UniProt P41144); construct: Membrane fractions were prepared from Sprague-Dawley rat or guinea pig brains; from tissue; host or cells: guinea pig brain (without cerebella) membranes; assay: Opioid receptor binding assay, [3H]U69,593, guinea pig brain membranes
Sequence (P41144 whole entry): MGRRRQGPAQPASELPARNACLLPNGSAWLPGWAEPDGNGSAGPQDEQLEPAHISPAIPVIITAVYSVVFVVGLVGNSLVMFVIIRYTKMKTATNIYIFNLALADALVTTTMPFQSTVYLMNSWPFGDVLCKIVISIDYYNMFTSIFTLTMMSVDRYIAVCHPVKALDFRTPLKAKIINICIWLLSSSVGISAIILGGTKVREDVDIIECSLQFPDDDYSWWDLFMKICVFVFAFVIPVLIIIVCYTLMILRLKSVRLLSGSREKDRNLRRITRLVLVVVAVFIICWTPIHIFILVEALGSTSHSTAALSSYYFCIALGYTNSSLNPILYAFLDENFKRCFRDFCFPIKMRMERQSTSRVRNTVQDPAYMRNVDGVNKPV
pKi: −log10 of the molar value.
Quick reference for pKi among some compounds
recorded.metric: pKi

C=CCN1CC[C@]23CC(=O)CC[C@H]2[C@H]1Cc1cccc(OC)c13 [Compound 4, 4-methoxy-N-allylmorphinan-6-one] :: 7.48
C=CCN1CC[C@]23CC(=O)CC[C@@]2(OC)[C@H]1Cc1cccc(OC)c13 [Compound 5, 4,14-dimethoxy-N-allyl-morphinan-6-one] :: 6.48

Taken from patent EP2340832A1.
